experiment: Apparent permeability of the compound at pH 6.2 by PAMPA; type: physicochemical
Measured Papp by item
All answers are understood in ×10⁻⁶ cm/s, so give the number only.

Consider the worked cases shown below.
COMPOUND	MEASURED QUANTITY	MEASURED VALUE
O=C(O)CCCN1CC(C(=O)O)Oc2c(/C=C/c3ccc(OCCCCc4ccccc4)cc3)cccc21 (centres undefined)	Papp	1.1
O=C(O)CCCOc1nc2cccc(/C=C/c3ccc(OCCCCOc4ccccc4)cc3)c2nc1C(=O)O	Papp	11
O=C(O)CCCN1CC(C(=O)O)Oc2c(/C=C/c3ccc(OCCCCOc4ccccc4)cc3)cccc21 (centres undefined)	Papp	7.8

Field: next compound
Q: May I ask what Papp has been recorded for O=C(O)CCCn1cc(C(=O)O)c(=O)c2c(/C=C/c3ccc(OCCCCOc4ccccc4)cc3)cccc21 ?
Ans: 13

###

test: AUCinf in rat at 1 mg/kg, iv; type: ADME, organism-based; parameters: dose 1 mg/kg, route intravenous, time infinity; conditions: plasma
Measured AUC(0-inf) by item
All answers are understood in ng·h/mL, so give the number only.

COMPOUND	RESULT UNIT	AUC(0-inf)
O=C(O)CCCN1CC(C(=O)O)Oc2c(NC(=O)c3ccc(OCCCCc4ccccc4)cc3)cccc21 (configuration not stated)	ng·h/mL	3500

Q: May I ask what AUC(0-inf) has been recorded for O=C(O)CCCN1CC(C(=O)O)Oc2c(OCc3ccc(OCCCCc4ccccc4)cc3)cccc21 (configuration not stated) ?
Ans: 7900

Q: May I ask what AUC(0-inf) has been recorded for O=C(O)CCCN1CC(c2nnn[nH]2)Oc2c(CCc3ccc(OCCCCc4ccccc4)cc3)cccc21 (configuration not stated) ?
Ans: 1200

Q: May I ask what AUC(0-inf) has been recorded for O=C(O)CCCN1CC(C(=O)O)Oc2c(/C=C/c3ccc(OCCCCc4ccccc4)cc3)cccc21 (configuration not stated) ?
Ans: 24000

Q: May I ask what AUC(0-inf) has been recorded for O=C(O)CCCn1cc(CC(=O)O)c2c(/C=C/c3ccc(OCCCCOc4ccccc4)cc3)cccc21 ?
Ans: 28000

Q: May I ask what AUC(0-inf) has been recorded for O=C(O)CCCN1CC(c2nnn[nH]2)Oc2c(NC(=O)c3ccc(OCCCCc4ccccc4)cc3)cccc21 (configuration not stated) ?
Ans: 2100

Q: May I ask what AUC(0-inf) has been recorded for O=C(O)CCCN1CC(C(=O)O)Oc2c(CCc3ccc(OCCCCc4ccccc4)cc3)cccc21 (configuration not stated) ?
Ans: 3700

###

Measured AUC by item
test: AUC in rat at 30 mg/kg, po; format: ADME, organism-based; design: dose 30 mg/kg, route oral; conditions: plasma
Note: a bare number is incomplete; add the unit.

MOLECULE	AUC
O=C(O)CCCN1CC(C(=O)O)Oc2c(CCc3ccc(OCCCCc4ccccc4)cc3)cccc21 (centres undefined)	88000 ng·h/mL

Q: May I ask what AUC has been recorded for O=C(O)CCCN1CC(c2nnn[nH]2)Oc2c(NC(=O)c3ccc(OCCCCc4ccccc4)cc3)cccc21 (centres undefined) ?
Ans: 700 ng·h/mL

Q: May I ask what AUC has been recorded for O=C(O)CCCN1CC(C(=O)O)Oc2c(/C=C/c3ccc(OCCCCc4ccccc4)cc3)cccc21 (centres undefined) ?
Ans: 203000 ng·h/mL

Q: May I ask what AUC has been recorded for O=C(O)CCCN1CC(C(=O)O)Oc2c(OCc3ccc(OCCCCc4ccccc4)cc3)cccc21 (centres undefined) ?
Ans: 48000 ng·h/mL

###

test: Half life in rat at 30 mg/kg, po; assay type: ADME, organism-based; set-up: dose 30 mg/kg, route oral; conditions: in vivo
Doc: threshold 7 h (exclusive). Items with half-life beneath it return t; others return f.

COMPOUND	LABEL VALUE
O=C(O)CCCN1CC(C(=O)O)Oc2c(/C=C/c3ccc(OCCCCc4ccccc4)cc3)cccc21 (stereo not given)	t
O=C(O)CCCN1CC(c2nnn[nH]2)Oc2c(NC(=O)c3ccc(OCCCCc4ccccc4)cc3)cccc21 (stereo not given)	f
O=C(O)CCCN1CC(C(=O)O)Oc2c(NC(=O)c3ccc(OCCCCc4ccccc4)cc3)cccc21 (stereo not given)	t
O=C(O)CCCN1CC(C(=O)O)Oc2c(CCc3ccc(OCCCCc4ccccc4)cc3)cccc21 (stereo not given)	t

API: the following record is the query input.
Q: Dear reviewer, please state whether O=C(O)CCCN1CC(C(=O)O)Oc2c(OCc3ccc(OCCCCc4ccccc4)cc3)cccc21 (stereo not given) has half-life strictly beneath 7 h.
Ans: f

###

assay: Oral bioavailability in rat at 10 mg/kg; assay type: ADME, organism-based; settings: in vivo
MEASURED QUANTITY: bioavailability (%)
All answers are understood in %, so give the number only.

COMPOUND	MEASURED VALUE
O=C(O)CCCn1cc(CC(=O)O)c2c(/C=C/c3ccc(OCCCCOc4ccccc4)cc3)cccc21	100

Field: next compound
Q: May I ask what bioavailability has been recorded for O=C(O)CCCN1CC(c2nnn[nH]2)Oc2c(CCc3ccc(OCCCCc4ccccc4)cc3)cccc21 (configuration not stated) ?
Ans: 15

###

Measured AUC by item
test: AUC in rat at 10 mg/kg, po; format: ADME, organism-based; set-up: dose 10 mg/kg, route oral; conditions: plasma
Note: a bare number is incomplete; add the unit.

COMPOUND	AUC
O=C(O)CCCn1cc(CC(=O)O)c2c(/C=C/c3ccc(OCCCCOc4ccccc4)cc3)cccc21	324 µg·h/mL

Field: next compound
Q: May I ask what AUC has been recorded for O=C(O)CCCN1CC(c2nnn[nH]2)Oc2c(CCc3ccc(OCCCCc4ccccc4)cc3)cccc21 (configuration not stated) ?
Ans: 1.8 µg·h/mL

###

test: Half life in rat at 10 mg/kg, po; format: ADME, organism-based; set-up: dose 10 mg/kg, route oral; conditions: in vivo
Measured half-life by item
All answers are understood in h, so give the number only.

COMPOUND	RESULT UNIT	half-life
O=C(O)CCCn1cc(CC(=O)O)c2c(/C=C/c3ccc(OCCCCOc4ccccc4)cc3)cccc21	h	4.7

Field: next compound
Q: May I ask what half-life has been recorded for O=C(O)CCCN1CC(c2nnn[nH]2)Oc2c(CCc3ccc(OCCCCc4ccccc4)cc3)cccc21 (configuration not stated) ?
Ans: 2.9

###

biological target: Cysteinyl leukotriene receptor 1 (Homo sapiens, UniProt Q9Y271); assay: Antagonist activity at human CysLT1 receptor expressed in CHO cells assessed as inhibition of LTD4-inudced intracellular calcium influx preincubated for 30 mins before LTD4 addition by Fura2-AM assay
Sequence (Q9Y271 whole entry): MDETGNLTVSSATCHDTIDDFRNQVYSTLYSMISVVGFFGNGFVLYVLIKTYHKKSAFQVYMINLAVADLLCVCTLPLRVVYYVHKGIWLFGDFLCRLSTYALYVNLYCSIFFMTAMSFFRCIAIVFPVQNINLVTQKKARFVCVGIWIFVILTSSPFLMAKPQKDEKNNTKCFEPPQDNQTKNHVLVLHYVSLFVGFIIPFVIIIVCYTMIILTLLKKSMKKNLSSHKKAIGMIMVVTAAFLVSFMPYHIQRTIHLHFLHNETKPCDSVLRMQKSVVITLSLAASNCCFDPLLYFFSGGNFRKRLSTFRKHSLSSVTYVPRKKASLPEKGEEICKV
MEASURED QUANTITY: IC50 (nM)
All answers are understood in nM, so give the number only.

Consider the worked cases shown below.
MOLECULE	IC50 (nM)
O=C(O)CCCN1CC(C(=O)NS(=O)(=O)c2ccccc2)Oc2c(NC(=O)c3ccc(OCCCCc4ccccc4)cc3)cccc21 (centres undefined)	70
O=C(O)CCCN1CC(c2nnn[nH]2)Oc2c(CCc3ccc(OCCCCc4ccccc4)cc3)cccc21 (centres undefined)	35
O=C(O)CCCN1CC(CO)Oc2c(NC(=O)c3ccc(OCCCCc4ccccc4)cc3)cccc21 (centres undefined)	740

Q: May I ask what IC50 has been recorded for O=C(O)CCCN1CC(C(=O)O)Oc2c(/C=C/c3ccc(OCCCCOc4ccccc4)cc3)cccc21 (centres undefined) ?
Ans: 24

###

assay: Clearance in rat at 1 mg/kg, iv; assay type: ADME, organism-based; parameters: dose 1 mg/kg, route intravenous; conditions: in vivo
MEASURED QUANTITY: clearance
Note: a bare number is incomplete; add the unit.

MOLECULE	MEASURED QUANTITY	MEASURED VALUE
O=C(O)CCCN1CC(c2nnn[nH]2)Oc2c(NC(=O)c3ccc(OCCCCc4ccccc4)cc3)cccc21 (stereo unspecified)	clearance	7.8 mL/min/kg

Q: May I ask what clearance has been recorded for O=C(O)CCCN1CC(c2nnn[nH]2)Oc2c(CCc3ccc(OCCCCc4ccccc4)cc3)cccc21 (stereo unspecified) ?
Ans: 15 mL/min/kg

Q: May I ask what clearance has been recorded for O=C(O)CCCn1cc(CC(=O)O)c2c(/C=C/c3ccc(OCCCCOc4ccccc4)cc3)cccc21 ?
Ans: 0.65 mL/min/kg

Q: May I ask what clearance has been recorded for O=C(O)CCCN1CC(C(=O)O)Oc2c(OCc3ccc(OCCCCc4ccccc4)cc3)cccc21 (stereo unspecified) ?
Ans: 2.2 mL/min/kg

Q: May I ask what clearance has been recorded for O=C(O)CCCN1CC(C(=O)O)Oc2c(/C=C/c3ccc(OCCCCc4ccccc4)cc3)cccc21 (stereo unspecified) ?
Ans: 0.77 mL/min/kg

Q: May I ask what clearance has been recorded for O=C(O)CCCN1CC(C(=O)O)Oc2c(CCc3ccc(OCCCCc4ccccc4)cc3)cccc21 (stereo unspecified) ?
Ans: 4.8 mL/min/kg

Value source: ChEMBL document CHEMBL3400104
